These entries and their values trace back to patent US20030162229A1.

- test_target: antiserum As #41 (sheep polyclonal, raised to the alpha subunit of human inhibin)
- assay_text: RIA, competition with iodinated inhibin
Where no end group is shown, it is not given here. The star is where a group is joined. Biotin = O=C1N[C@H]2[C@H](CS[C@H]2CCCCC(=O)*)N1
Quick list: ED50 per entry.
Number first, unit second.

Please review the entries below; each comes with its answer.
{"columns": ["binder", "experimental_result"],
 "data": [
  ["Biotin-SGSGRTTSDGGYSFKYET [biotinylated peptide #30 (Set 1) of the human (alpha)C subunit]", "2.5 µM"],
  ["Biotin-SGSGPYSLLPGAQPCCAA (cysteine pairing not given here) [biotinylated peptide #24 (Set 1) of the human (alpha)C subunit]", "6.2 µM"],
  ["Biotin-SGSGLPVPGAPPTPAQPY [biotinylated peptide #21 (Set 1) of the human (alpha)C subunit]", "1 µM"],
  ["Biotin-SGSGWSPSALRLLQRPPE [biotinylated peptide #5 (Set 1) of the human (alpha)C subunit]", "1.5e-05 µM"]
]}

# evaluate next
-- ask Give recorded ED50. Biotin-SGSGTPAQPYSLLPGAQP [biotinylated peptide #23 (Set 1) of the human (alpha)C subunit]
-- reply 6.2 µM
